Target: UniProt P06401
Sequence (P06401 whole entry): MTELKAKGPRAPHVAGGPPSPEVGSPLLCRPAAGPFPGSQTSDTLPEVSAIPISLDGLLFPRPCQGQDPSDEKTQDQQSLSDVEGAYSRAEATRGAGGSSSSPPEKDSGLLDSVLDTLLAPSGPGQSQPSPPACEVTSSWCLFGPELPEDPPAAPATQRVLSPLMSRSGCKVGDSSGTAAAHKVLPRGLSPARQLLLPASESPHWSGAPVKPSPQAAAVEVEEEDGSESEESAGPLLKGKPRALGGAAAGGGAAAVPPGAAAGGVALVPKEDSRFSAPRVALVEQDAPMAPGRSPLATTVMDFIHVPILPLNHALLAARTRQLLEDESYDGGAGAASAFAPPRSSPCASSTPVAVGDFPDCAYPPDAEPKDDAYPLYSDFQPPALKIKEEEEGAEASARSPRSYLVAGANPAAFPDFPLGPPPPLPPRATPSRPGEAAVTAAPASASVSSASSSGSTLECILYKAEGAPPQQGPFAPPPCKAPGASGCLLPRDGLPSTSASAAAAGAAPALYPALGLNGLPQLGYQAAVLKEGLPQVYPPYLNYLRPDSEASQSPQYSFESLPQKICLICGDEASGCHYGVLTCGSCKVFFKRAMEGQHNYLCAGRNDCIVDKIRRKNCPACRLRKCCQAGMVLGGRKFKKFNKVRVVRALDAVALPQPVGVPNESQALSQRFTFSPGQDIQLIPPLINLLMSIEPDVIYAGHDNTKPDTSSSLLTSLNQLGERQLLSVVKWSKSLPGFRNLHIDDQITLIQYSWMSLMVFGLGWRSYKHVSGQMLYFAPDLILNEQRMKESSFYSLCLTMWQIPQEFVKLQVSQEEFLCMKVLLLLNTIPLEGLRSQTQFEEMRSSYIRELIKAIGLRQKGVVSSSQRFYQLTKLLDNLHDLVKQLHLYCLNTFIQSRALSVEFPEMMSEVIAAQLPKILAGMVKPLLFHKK
Type: functional
measured.attribute: AC50

Examples with answers:
compound: CN(C)CCOC(=O)C(c1ccccc1)C1(O)CCCC1 (stereo not drawn) [CYCLOPENTOLATE]
obs.value: > 10 µM
--
compound: CC1CC(OC(=O)C(O)c2ccccc2)CC(C)(C)C1 (stereo not drawn) [CYCLANDELATE]
obs.value: > 30 µM

// switching to the query compound
Prompt line: I am curious: what AC50 value has been reported for CCC(=O)O[C@H](CC(=O)O)C[N+](C)(C)C [LEVOCARNITINE PROPIONATE] ?
Response line: > 30 µM

----------
Please provide measured AC50 for the entries that follow.
Biological target: Mu-type opioid receptor (Homo sapiens); further: assay procedure not described here
Sequence (P35372 whole entry): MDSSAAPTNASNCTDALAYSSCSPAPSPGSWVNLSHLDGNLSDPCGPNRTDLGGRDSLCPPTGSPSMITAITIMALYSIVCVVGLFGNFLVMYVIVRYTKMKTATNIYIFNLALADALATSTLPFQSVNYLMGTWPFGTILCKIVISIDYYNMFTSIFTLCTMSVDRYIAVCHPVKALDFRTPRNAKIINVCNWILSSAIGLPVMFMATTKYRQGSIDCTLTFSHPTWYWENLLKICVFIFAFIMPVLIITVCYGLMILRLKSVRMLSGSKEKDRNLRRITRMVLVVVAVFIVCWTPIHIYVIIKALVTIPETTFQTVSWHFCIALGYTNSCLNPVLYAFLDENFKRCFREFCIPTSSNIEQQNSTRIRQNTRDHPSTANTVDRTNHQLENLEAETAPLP

compound: CCOC(=O)O[C@]1(C(=O)COC(=O)CC)CC[C@H]2[C@@H]3CCC4=CC(=O)C=C[C@]4(C)[C@H]3[C@@H](O)C[C@@]21C [PREDNICARBATE]
measured.attribute: AC50
obs.value: > 30 µM
//
compound: CCC(=O)[C@@]1(C)[C@H](C)C[C@H]2[C@@H]3CCC4=CC(=O)C=C[C@]4(C)[C@H]3[C@@H](O)C[C@@]21C [RIMEXOLONE]
measured.attribute: AC50
obs.value: > 30 µM
//
compound: CC(C(=O)O)c1ccc(C(=O)c2ccccc2)s1 (stereo unspecified)
measured.attribute: AC50
obs.value: > 30 µM
//
compound: NCC1(CC(=O)O)CCCCC1
measured.attribute: AC50
obs.value: > 30 µM

Parameters: items (list). Returns: AC50 for each item.
1. CCOC(=O)[C@H](CCc1ccccc1)N[C@@H](C)C(=O)N1Cc2ccccc2C[C@H]1C(=O)O
2. COC(=O)[C@H]1[C@H]2C[C@@H]3c4[nH]c5ccccc5c4CCN3C[C@H]2C[C@@H](OC(=O)c2cc(OC)c(OC)c(OC)c2)[C@@H]1OC

Response line:
1. > 10 µM
2. 8.3 µM

----------
These molecules were tested on D(1A) dopamine receptor (Homo sapiens); AC50 is the recorded read-out. Further: assay procedure not described here.
Sequence (P21728 whole entry): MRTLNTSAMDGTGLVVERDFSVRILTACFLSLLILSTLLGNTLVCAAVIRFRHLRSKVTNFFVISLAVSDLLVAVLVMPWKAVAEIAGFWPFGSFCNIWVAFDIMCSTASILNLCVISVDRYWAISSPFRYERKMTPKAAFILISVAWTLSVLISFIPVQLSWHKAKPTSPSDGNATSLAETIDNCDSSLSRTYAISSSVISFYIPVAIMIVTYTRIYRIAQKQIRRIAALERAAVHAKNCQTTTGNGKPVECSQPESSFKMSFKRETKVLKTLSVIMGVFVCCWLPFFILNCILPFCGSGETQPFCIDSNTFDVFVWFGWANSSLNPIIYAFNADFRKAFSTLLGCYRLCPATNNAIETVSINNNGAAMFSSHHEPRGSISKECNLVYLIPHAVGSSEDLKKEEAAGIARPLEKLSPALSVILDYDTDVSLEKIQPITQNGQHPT

See these solved cases before continuing.
molecule: CC1=C(/C=C/C(C)=C\C=C\C(C)=C\C(=O)O)C(C)(C)CCC1
target: D(1A) dopamine receptor (Homo sapiens); further: assay procedure not described here
AC50: > 30 µM
//
molecule: CN1CCc2c(c3ccccc3n2Cc2ccccc2)C1 [MEBHYDROLIN]
target: D(1A) dopamine receptor (Homo sapiens); further: assay procedure not described here
AC50: 1.98 µM
//
molecule: O=c1[nH]c(=O)n([C@H]2C[C@H](O)[C@@H](CO)O2)cc1/C=C/Br
target: D(1A) dopamine receptor (Homo sapiens); further: assay procedure not described here
AC50: > 30 µM
//
molecule: O=C1Nc2ccccc2C1(c1ccc(O)cc1)c1ccc(O)cc1
target: D(1A) dopamine receptor (Homo sapiens); further: assay procedure not described here
AC50: > 30 µM
//
molecule: CN1CCCC(CC2c3ccccc3Sc3ccccc32)C1 (configuration not stated)
target: D(1A) dopamine receptor (Homo sapiens); further: assay procedure not described here
AC50: 2.03 µM

Can you give me AC50 for all of these, one by one?
1. COC(=O)N(C)c1c(N)nc(-c2nn(Cc3ccccc3F)c3ncccc23)nc1N
2. CNC(=O)c1cnn(-c2nc(N)c3ncn([C@@H]4O[C@H](CO)[C@@H](O)[C@H]4O)c3n2)c1 [REGADENOSON ANHYDROUS]
3. C[C@H](Nc1ncnc2[nH]cnc12)c1cc2cccc(Cl)c2c(=O)n1-c1ccccc1
4. CC(C)N1CCN(c2ccc(OCC3COC(Cn4cncn4)(c4ccc(Cl)cc4Cl)O3)cc2)CC1 (configuration not stated)
5. CC(=O)OC1CN2CCC1CC2 (configuration not stated)
6. NC(=O)C1(N2CCCCC2)CCN(CCCN2c3ccccc3CCc3ccccc32)CC1
7. O=NN(CCCl)C(=O)NC1CCCCC1

Response line:
1: > 30 µM; 2: > 30 µM; 3: > 30 µM; 4: 25.2 µM; 5: > 30 µM; 6: 0.0928 µM; 7: > 30 µM

----------
Could you please report measured AC50 for the items listed next?
Target: UniProt Q12809
Sequence (Q12809 whole entry): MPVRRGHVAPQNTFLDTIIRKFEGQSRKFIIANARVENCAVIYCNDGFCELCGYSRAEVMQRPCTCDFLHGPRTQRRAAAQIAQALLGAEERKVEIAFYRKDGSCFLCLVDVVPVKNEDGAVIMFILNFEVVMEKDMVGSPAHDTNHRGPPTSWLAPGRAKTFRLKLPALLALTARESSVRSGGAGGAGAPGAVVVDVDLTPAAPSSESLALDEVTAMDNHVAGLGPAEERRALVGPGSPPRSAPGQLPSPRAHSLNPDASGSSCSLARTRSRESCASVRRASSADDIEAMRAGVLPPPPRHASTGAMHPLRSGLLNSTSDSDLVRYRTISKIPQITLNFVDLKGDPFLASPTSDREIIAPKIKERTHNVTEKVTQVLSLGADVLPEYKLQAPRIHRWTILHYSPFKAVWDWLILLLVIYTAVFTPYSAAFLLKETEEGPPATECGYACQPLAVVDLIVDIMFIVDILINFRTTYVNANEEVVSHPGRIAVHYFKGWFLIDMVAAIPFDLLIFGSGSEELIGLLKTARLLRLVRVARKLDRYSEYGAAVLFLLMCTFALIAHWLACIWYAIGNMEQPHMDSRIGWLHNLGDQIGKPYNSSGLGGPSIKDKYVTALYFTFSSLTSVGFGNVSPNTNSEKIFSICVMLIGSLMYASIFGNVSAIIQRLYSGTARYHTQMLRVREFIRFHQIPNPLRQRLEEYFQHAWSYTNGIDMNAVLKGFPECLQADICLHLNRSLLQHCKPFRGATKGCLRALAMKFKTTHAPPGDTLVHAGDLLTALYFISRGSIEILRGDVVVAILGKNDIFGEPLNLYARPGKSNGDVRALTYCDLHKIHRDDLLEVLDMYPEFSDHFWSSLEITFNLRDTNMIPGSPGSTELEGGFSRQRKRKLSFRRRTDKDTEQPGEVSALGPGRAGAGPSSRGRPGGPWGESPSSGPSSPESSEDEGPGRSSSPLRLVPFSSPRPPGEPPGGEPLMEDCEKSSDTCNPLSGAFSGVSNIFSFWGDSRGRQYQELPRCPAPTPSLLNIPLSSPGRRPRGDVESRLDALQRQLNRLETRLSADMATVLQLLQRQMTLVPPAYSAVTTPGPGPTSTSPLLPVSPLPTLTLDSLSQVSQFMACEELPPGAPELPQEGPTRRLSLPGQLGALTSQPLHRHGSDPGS
Type: functional
Conditions: read-out: AC50; further: assay procedure not described here

Before answering, review these 6 worked examples.
compound: CS(=O)(=O)NC(=O)CCC/C=C\C[C@H]1C(=O)C[C@@H](O)[C@@H]1/C=C/[C@@H](O)COc1ccccc1
AC50: > 30 µM
--
compound: CC(C)C[C@H](NC(=O)[C@H](Cc1ccccc1)NC(=O)c1cnccn1)B(O)O
AC50: > 30 µM
--
compound: CN1CCN(C(c2ccccc2)c2ccc(Cl)cc2)CC1 (stereo not drawn)
AC50: 4.64 µM
--
compound: CCOc1cc2ncc(C#N)c(Nc3ccc(OCc4ccccn4)c(Cl)c3)c2cc1NC(=O)/C=C/CN(C)C
AC50: 16.1 µM
--
compound: CCOC(=O)[C@H](CCc1ccccc1)N[C@@H](C)C(=O)N1Cc2ccccc2C[C@H]1C(=O)O
AC50: > 30 µM
--
compound: Nc1ccc(S(=O)(=O)Nc2ncccn2)cc1
AC50: > 30 µM

For each of the compounds below, state AC50.
1. CC(C)=CCC/C(C)=C/CC/C(C)=C/CC/C(C)=C/CC1=C(C)C(=O)c2ccccc2C1=O
2. Oc1ccc(OCc2ccccc2)cc1
3. N=C(N)NC(=O)Cc1c(Cl)cccc1Cl
4. Cc1ccc(C(C)C)c(O)c1
5. N[C@@H](Cc1cc(I)c(Oc2cc(I)c(O)c(I)c2)c(I)c1)C(=O)O
6. CC(C)(CO)c1cc2cc(NC(=O)C3(c4ccc5c(c4)OC(F)(F)O5)CC3)c(F)cc2n1C[C@@H](O)CO

Response line:
["> 30 µM", "> 30 µM", "> 30 µM", "> 30 µM", "> 30 µM", "> 30 µM"]

Hello, I would appreciate it if you could give AC50 for each entry below.
1. CNC1(C)C2CCC(C2)C1(C)C (stereo not drawn)
2. CN1CCCC(CC2c3ccccc3Sc3ccccc32)C1 (stereo not drawn)

Response line:
["> 30 µM", "3.1 µM"]

----------
Data export: AC50 values recorded with Cholecystokinin receptor type A (Homo sapiens).
Sequence (P32238 whole entry): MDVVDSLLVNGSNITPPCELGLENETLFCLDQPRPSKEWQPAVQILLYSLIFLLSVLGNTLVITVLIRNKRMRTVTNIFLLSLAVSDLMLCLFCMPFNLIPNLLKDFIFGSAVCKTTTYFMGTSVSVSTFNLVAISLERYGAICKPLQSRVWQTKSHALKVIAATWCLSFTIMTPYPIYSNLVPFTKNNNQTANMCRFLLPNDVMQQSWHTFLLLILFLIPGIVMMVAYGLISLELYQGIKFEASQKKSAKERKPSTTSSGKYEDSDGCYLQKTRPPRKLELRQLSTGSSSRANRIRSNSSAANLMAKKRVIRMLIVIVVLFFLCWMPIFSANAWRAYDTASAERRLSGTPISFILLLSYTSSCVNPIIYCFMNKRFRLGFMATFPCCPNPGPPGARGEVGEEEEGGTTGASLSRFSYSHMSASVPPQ

For every item below, please supply its AC50.
1. Cc1cccc(Nc2ccncc2S(=O)(=O)NC(=O)NC(C)C)c1 [TORSEMIDE]
2. COC(=O)c1ccc2c(c1)NC(=O)/C2=C(\Nc1ccc(N(C)C(=O)CN2CCN(C)CC2)cc1)c1ccccc1
3. CNCCc1ccccn1
4. CN1CCC(=C2c3ccccc3CC(=O)c3sccc32)CC1

Response line:
["> 30 µM", "> 30 µM", "> 30 µM", "> 10 µM"]

----------
Target: Beta-1 adrenergic receptor (Homo sapiens, UniProt P08588); further: assay procedure not described here
Sequence (P08588 whole entry): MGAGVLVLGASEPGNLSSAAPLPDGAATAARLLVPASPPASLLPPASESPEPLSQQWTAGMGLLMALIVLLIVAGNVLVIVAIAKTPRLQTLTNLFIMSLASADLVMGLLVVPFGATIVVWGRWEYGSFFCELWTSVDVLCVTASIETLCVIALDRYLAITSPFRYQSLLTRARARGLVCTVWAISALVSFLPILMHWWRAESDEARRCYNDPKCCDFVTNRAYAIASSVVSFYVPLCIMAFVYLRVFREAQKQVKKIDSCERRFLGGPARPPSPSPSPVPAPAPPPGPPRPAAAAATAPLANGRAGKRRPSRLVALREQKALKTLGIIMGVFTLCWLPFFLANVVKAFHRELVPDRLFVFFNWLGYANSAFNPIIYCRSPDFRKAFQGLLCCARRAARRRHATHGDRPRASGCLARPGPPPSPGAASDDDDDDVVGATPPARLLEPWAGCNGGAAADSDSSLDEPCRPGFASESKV
Type: functional
Where a SMILES comes first, the peptide text is derived from it.
Record form. Attribute: AC50. Fill in for each entry.

molecule: COc1ccc(-c2cc(=S)ss2)cc1
target: Beta-1 adrenergic receptor (Homo sapiens, UniProt P08588); further: assay procedure not described here
measured.attribute: AC50
obs.value: > 10 µM

State recorded AC50 for all listed molecules.
1. N=C(N)NC(=O)c1nc(Cl)c(N)nc1N [AMILORIDE]
2. C[C@]12C=CC(=O)C=C1C(Cl)=C[C@@H]1[C@@H]2[C@@H](O)C[C@@]2(C)[C@H]1CC[C@]2(O)C(=O)CO
3. CC(=O)N1CCN(c2ccc(OCC3COC(Cn4ccnc4)(c4ccc(Cl)cc4Cl)O3)cc2)CC1 (stereo not drawn)

Response line:
1. > 30 µM
2. > 30 µM
3. > 10 µM

Each molecule below has a recorded value; state its AC50.
1. C[C@H](CS)C(=O)N1CCC[C@H]1C(=O)O
2. CCOc1cc2ncc(C#N)c(Nc3ccc(OCc4ccccn4)c(Cl)c3)c2cc1NC(=O)/C=C/CN(C)C
3. CCCCOC(=O)c1ccc(N)cc1
4. CC(=O)SCC(Cc1ccccc1)C(=O)NCC(=O)OCc1ccccc1 (stereo not drawn)
5. Cc1ccc(S(=O)(=O)NC(=O)N[C@H]2[C@H]3CC[C@@](C)([C@H]2O)C3(C)C)cc1 [GLIBORNURIDE]

Response line:
1: > 10 µM; 2: > 10 µM; 3: > 30 µM; 4: > 30 µM; 5: > 30 µM

# return AC50 for each item in the list
1. C[C@H](Cn1cnc2c(N)ncnc21)OCP(=O)(O)O [TENOFOVIR ANHYDROUS]
2. C[C@H](N)C(=O)N[C@@H](CCC(N)=O)C(=O)O [ALANYL GLUTAMINE] (H-Ala-Gln-OH)
3. CN1C(=O)CN=C(c2ccccc2F)c2cc([N+](=O)[O-])ccc21
4. CC(C)(C)NCC(O)COc1cccc2c1CC(O)C(O)C2 (stereo not drawn)

Response line:
> 30 µM
> 30 µM
> 10 µM
0.102 µM

----------
Target: Estrogen receptor (Homo sapiens, UniProt P03372); further: assay procedure not described here
Sequence (P03372 whole entry): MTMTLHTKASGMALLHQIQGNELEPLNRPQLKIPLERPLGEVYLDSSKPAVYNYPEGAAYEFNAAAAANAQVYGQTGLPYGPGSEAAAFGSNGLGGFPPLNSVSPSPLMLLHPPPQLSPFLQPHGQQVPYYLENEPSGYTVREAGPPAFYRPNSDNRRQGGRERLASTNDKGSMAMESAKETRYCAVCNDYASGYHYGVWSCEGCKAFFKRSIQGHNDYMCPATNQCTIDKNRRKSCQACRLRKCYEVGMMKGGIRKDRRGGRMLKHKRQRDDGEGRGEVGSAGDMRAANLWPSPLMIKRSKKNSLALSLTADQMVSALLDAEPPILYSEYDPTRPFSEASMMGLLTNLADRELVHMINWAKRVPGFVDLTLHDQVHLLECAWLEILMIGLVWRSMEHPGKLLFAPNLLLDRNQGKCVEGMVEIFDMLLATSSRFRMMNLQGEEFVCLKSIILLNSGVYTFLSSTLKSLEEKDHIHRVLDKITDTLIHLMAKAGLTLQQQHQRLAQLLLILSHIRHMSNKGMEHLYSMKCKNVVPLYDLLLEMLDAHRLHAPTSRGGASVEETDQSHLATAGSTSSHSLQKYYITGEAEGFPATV
Format: functional
Consider the following compounds; for each one, report its AC50.

As a guide, the following entries are already answered.
compound: CC(C)(CO)c1cc2cc(NC(=O)C3(c4ccc5c(c4)OC(F)(F)O5)CC3)c(F)cc2n1C[C@@H](O)CO [TEZACAFTOR]
AC50: > 30 µM

compound: O=C1[C@@H]2[C@H]3CC[C@H](C3)[C@@H]2C(=O)N1C[C@@H]1CCCC[C@H]1CN1CCN(c2nsc3ccccc23)CC1 [LURASIDONE]
AC50: > 30 µM

compound: CCOCC(O)COc1ccc(NC(=O)CC[S+](C)C)cc1 (centres undefined)
AC50: > 30 µM

compound: c1cnc2cc3c(cc2n1)[C@@H]1CNC[C@H]3C1 [VARENICLINE]
AC50: 4.6 µM

compound: CO[C@@H]1[C@@H](OC(N)=O)[C@@H](O)[C@H](Oc2ccc3c(O)c(NC(=O)c4ccc(O)c(CC=C(C)C)c4)c(=O)oc3c2C)OC1(C)C [NOVOBIOCIN]
AC50: > 30 µM

Provide each entry's AC50 from the list below.
1. Cc1c(C)c2c(c(C)c1O)CCC(C)(COc1ccc(CC3SC(=O)NC3=O)cc1)O2 (centres undefined) [TROGLITAZONE]
2. COc1cc2c(cc1OC)C1CC(=O)C(CC(C)C)CN1CC2 (centres undefined) [TETRABENAZINE]
3. Nc1c2c(nc3ccccc13)CCCC2O (centres undefined) [VELNACRINE]
4. C[C@H](CCC(=O)O)[C@H]1CC[C@H]2[C@@H]3[C@H](O)C[C@@H]4C[C@H](O)CC[C@]4(C)[C@H]3CC[C@]12C [CHENODIOL]

Response line:
1. > 30 µM
2. > 30 µM
3. > 10 µM
4. > 30 µM
